target: I69E mutant yeast BC domain (Saccharomyces cerevisiae, UniProt Q00955, I69E); construct: Residues 2-581 of yeast ACC were sub-cloned into the pET28a vector; made in house; host or cells: E. coli; assay: fluorescence-based binding assay, I69E mutant; settings: 50 nM enzyme
Sequence (Q00955 2-581 I69E): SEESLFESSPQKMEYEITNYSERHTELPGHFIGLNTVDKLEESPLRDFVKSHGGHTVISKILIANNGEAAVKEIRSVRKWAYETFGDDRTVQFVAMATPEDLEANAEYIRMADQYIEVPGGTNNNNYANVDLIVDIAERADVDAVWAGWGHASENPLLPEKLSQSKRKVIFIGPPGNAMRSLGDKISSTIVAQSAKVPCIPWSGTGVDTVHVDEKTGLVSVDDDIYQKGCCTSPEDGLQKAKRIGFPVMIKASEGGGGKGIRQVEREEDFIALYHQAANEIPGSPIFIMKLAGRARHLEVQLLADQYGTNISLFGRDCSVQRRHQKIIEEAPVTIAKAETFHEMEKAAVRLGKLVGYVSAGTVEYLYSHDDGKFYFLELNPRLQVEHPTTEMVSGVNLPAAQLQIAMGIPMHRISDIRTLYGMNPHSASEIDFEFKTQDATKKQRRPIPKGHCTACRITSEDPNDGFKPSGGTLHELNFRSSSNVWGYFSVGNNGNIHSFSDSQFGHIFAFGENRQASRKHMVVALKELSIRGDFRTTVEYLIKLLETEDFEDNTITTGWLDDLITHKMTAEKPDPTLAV
observation.type: Kd (nM)

| molecule | observation.type | measured.number |
| --- | --- | --- |
| CO[C@H]1CCCC[C@@H](c2ccccc2)OC(=O)[C@@H](C)[C@@]2(O)O[C@H]([C@@H](C)[C@H](O)[C@H]2OC)[C@@H](C)/C=C/[C@H]1OC [soraphen A] | Kd | 104 |

* * *

target: F510I mutant yeast BC domain (Saccharomyces cerevisiae, UniProt Q00955, F510I); construct: Residues 2-581 of yeast ACC were sub-cloned into the pET28a vector; made in house; host or cells: E. coli; experiment: fluorescence-based binding assay, F510I mutant; settings: F510I yeast BC domain, 50 nM enzyme
Sequence (Q00955 2-581 F510I): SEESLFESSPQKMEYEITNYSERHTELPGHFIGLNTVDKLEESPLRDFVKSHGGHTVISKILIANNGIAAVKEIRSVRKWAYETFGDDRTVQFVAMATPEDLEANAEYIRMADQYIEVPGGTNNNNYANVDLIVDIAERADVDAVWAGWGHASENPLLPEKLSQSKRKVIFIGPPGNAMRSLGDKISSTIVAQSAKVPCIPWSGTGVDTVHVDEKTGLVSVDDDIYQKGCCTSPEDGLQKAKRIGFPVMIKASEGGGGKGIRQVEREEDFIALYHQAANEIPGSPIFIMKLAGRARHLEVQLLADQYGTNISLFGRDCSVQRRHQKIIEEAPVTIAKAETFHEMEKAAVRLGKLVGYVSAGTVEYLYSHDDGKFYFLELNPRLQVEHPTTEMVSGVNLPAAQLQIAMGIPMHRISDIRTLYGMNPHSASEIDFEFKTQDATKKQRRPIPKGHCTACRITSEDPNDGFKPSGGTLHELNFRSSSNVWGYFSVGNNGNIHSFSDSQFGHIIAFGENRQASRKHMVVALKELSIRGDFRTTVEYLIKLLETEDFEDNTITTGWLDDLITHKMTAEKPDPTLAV
observation.type: Kd (nM)

| smiles.data | experimental.system | units.of.measure | measured.number |
| --- | --- | --- | --- |
| CO[C@H]1CCCC[C@@H](c2ccccc2)OC(=O)[C@@H](C)[C@@]2(O)O[C@H]([C@@H](C)[C@H](O)[C@H]2OC)[C@@H](C)/C=C/[C@H]1OC | F510I mutant yeast BC domain (Saccharomyces cerevisiae, UniProt Q00955, F510I) | nM | 10.6 |
